protocol-details: refractive index (Na D-line) (dimensionless)
condition-context: 298.15 K; 101.33 kPa; Liquid
observed-property: refractive index
The answer should be a number; do not append a unit.

Solved cases (2 shown):
Cc1cccc(C)c1 = 1.4946
Clc1ccccc1 = 1.5219

Request: Name the recorded refractive index for "CCCCCC" .
Response: 1.3723

Request: Subsequent entry: "CC(C)(C)O"
Response: 1.3852

Request: Then this molecule: "CC(C)CC(C)(C)C"
Response: 1.3889

Request: Query "Cc1ccc(C)cc1" next
Response: 1.4933

Request: Repeat with "CCO"
Response: 1.3594

---

Known mass density of a selection of compounds
condition-context: 298.15 K; 101.33 kPa; Liquid
Your answer should be a plain number; it is taken to be in kg/m3.

Clc1ccccc1 = 1100.9
CCCCCC = 654.8
CC(C)CC(C)(C)C = 687.8
Cc1cccc(C)c1 = 860.1
Cc1ccc(C)cc1 = 856.6
CC(C)(C)O = 781.2

Next item in the queue.
Request: Which mass density value is on record for "CCO" ?
Response: 784.9
